- ASSAY_INFO: Renal concentrations until one week after single oral administration
- Type: in vivo
- ASSAY_SETUP: Sprague-Dawley (SD/IGS), rat; 1 mg/kg po, male Sprague-Dawley rats, kidney, 3 days; read-out: Concentration of compounds in kidney after single oral administration, After 3 days

| COMPOUND | concentration at 3 days |
| --- | --- |
| Cc1cc(O)c([C@@H]2O[C@H](CO)[C@@H](O)[C@H](O)[C@H]2O)cc1Cc1ccc(CCCC(=O)NC(C)(C)C(N)=O)cc1 [compound 4] | 85.5 ng/g |

# credit: patent US8822674B2
